Entry source: paper PMC9120017

Target: mouse TMEM16A mutant Q637A (Mus musculus, UniProt Q8BHY3, Q637A)
Construct: expressed in transfected cells; host or cells: HEK293T
Sequence (Q8BHY3 1-960 Q637A): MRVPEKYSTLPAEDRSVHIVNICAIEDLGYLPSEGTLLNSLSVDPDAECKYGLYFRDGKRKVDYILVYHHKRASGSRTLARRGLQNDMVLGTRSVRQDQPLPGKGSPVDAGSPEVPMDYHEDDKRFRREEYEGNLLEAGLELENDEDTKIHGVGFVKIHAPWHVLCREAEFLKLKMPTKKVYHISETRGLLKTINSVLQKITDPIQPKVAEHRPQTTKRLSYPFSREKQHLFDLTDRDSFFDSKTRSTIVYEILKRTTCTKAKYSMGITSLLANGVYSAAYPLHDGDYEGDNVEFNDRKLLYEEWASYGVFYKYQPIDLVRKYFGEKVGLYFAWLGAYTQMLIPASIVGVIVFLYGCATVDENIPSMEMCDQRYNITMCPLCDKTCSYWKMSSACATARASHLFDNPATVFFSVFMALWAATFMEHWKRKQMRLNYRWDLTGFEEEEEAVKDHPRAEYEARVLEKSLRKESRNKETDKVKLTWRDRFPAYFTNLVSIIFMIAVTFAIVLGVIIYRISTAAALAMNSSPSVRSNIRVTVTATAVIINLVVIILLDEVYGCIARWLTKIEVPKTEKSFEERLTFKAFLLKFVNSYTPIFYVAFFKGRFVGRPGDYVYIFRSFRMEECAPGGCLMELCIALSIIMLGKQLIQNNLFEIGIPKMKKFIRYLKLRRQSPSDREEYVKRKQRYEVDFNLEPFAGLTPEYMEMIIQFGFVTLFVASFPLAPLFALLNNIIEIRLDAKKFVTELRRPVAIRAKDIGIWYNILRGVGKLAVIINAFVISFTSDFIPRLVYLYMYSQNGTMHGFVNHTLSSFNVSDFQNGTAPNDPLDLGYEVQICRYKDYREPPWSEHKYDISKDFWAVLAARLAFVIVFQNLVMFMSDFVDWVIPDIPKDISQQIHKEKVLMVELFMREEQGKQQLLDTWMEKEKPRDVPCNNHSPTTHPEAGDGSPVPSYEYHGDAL
Assay: Inside-out patch recording of 1PBC block, mutant Q637A
Format: cell-based
Settings: Q637A; V 100 mV
reported property: IC50

• N#Cc1c(C(F)(F)F)cc(O)n2c1nc1ccccc12 = 898 nM

* * *

Molecular target: mouse TMEM16A mutant I516A (Mus musculus, UniProt Q8BHY3, I516A)
Construct: expressed in transfected cells; host or cells: HEK293T
Assay: Inside-out patch recording of 1PBC block, mutant I516A
Format: cell-based
Conditions: I516A; V 120 mV
reported property: IC50 (µM)

- N#Cc1c(C(F)(F)F)cc(O)n2c1nc1ccccc12: 4.6

* * *

Target: mouse TMEM16A mutant R515A (Mus musculus, UniProt Q8BHY3, R515A)
Construct: expressed in transfected cells; host or cells: HEK293T
Sequence (Q8BHY3 1-960 R515A): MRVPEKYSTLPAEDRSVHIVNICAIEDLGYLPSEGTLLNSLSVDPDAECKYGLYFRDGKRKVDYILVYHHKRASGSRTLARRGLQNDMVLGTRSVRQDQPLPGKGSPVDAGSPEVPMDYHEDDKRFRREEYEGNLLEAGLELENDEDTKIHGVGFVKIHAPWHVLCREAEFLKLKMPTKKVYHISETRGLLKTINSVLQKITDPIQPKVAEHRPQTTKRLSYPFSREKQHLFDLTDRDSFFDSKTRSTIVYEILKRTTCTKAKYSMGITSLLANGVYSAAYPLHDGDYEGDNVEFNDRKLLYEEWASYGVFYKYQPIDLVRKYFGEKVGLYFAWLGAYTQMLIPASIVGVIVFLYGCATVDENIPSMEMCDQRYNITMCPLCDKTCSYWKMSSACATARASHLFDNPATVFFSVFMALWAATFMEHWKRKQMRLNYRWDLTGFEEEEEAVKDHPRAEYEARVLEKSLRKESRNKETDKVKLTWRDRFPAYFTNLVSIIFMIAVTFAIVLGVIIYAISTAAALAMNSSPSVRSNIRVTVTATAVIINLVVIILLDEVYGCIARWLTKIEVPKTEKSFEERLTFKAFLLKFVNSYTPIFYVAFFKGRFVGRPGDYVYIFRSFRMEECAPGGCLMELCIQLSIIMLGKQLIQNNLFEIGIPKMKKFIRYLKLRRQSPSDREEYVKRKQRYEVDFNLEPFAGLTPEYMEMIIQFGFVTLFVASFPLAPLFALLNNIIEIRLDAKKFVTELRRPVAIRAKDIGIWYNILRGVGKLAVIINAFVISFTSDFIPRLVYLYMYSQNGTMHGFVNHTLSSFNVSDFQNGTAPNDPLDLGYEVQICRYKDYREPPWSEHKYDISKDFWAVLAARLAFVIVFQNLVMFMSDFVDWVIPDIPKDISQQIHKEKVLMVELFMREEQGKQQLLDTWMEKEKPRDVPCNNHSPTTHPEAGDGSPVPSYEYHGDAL
Assay: Inside-out patch recording of 1PBC block, mutant R515A
Assay type: cell-based
Conditions: -80 mV; 4 µM Ca2+
Procedure: HEK293T cells (ATCC CRL-1573) were maintained in Dulbecco’s modified Eagle’s medium (DMEM; Sigma-Aldrich) supplemented with 10 U ml^−1 penicillin, 0.1 mg ml^−1 streptomycin (Sigma-Aldrich), 2 mM L-glutamine (Sigma-Aldrich), and 10% FBS (Sigma-Aldrich) in a humidified atmosphere containing 5% CO2 at 37 °C. […]
reported property: IC50 (µM)

* N#Cc1c(C(F)(F)F)cc(O)n2c1nc1ccccc12 | 166
